System: AMPK-alpha2;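 also: KINOMEscan kinase panel screen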
Construct: gene PRKAA2
Settings: concentration: 1 μM, replicates: in singlicate; n = 1
Response key: Condition met means %Inh >= 5%; Condition not met means %Inh < 5%.

Query string: Is %Inh for "O=C(Nc1n[nH]c2cc(-c3cccc(F)c3)ccc12)C1CC1" at or above 5%?
Result string: Condition met

Query string: I'd appreciate it if you could say whether "O=c1cc(N2CCOCC2)nc2n(Cc3cccc4ccccc34)ccn12" has %Inh at least equal to 5%.
Result string: Condition not met

Query string: Could you please find out whether "COCCNC(=O)c1ccc(-c2cc(C(=O)NC3CC3)cc(F)c2C)cc1" has %Inh that meets 5% or exceeds it?
Result string: Condition not met

Query string: Hi, just wondering whether "CN(C(=O)c1ccc(-c2cc(-c3c[nH]nc3-c3ccccn3)ccn2)cc1)C1CCOCC1" shows %Inh of 5% or higher.
Result string: Condition not met

Query string: Say whether "CC(=O)Nc1ccc(COc2ccc(Nc3ccnc4cc(-c5ccccn5)ccc34)cc2)cc1.Cl" shows %Inh of 5% or more.
Result string: Condition met

Query string: Decide: %Inh of Cc1c(Cn2c(C)nn3c(=O)cc(N4CCOC(C)C4)nc23)cccc1C(F)(F)F (stereo not drawn) >= 5%?
Result string: Condition not met

Query string: Please indicate if the recorded %Inh for "O=C1NC(=O)C(N2CCc3ccccc32)=C1c1cccc(Cl)c1" meets or exceeds 5%.
Result string: Condition met

Query string: Item "O=C(NCCNc1ccnc(Nc2ccc(F)cc2)n1)Nc1ccccc1F" with %Inh of 5% or above?
Result string: Condition not met

Query string: Has "CCn1cnc2c(N)ncnc21" a recorded %Inh greater than or equal to 5%?
Result string: Condition not met

Query string: // inclusive: %Inh at least 5%? input: "CC(C)Oc1ccc2c(-c3ccnc(Nc4ccc(N5CCN(C)CC5)cc4)n3)cnn2n1"
Result string: Condition met

Query string: I'd appreciate it if you could say whether "Cc1ccc(NC(=O)c2ccnc(N3CCN(C)CC3)c2)cc1-c1ccc(C(=O)NCC2CC2)cc1" has %Inh at least equal to 5%.
Result string: Condition not met

Query string: Can NCC(NC(=O)c1cc(-c2cn[nH]c2)c(-c2ccnc3[nH]ccc23)s1)c1ccccc1.O=C(O)C(F)(F)F.O=C(O)C(F)(F)F (stereo not drawn) be said to have %Inh at or above 5%?
Result string: Condition met

Query string: In plain terms: is recorded %Inh at least 5% for "O=C(Nc1cccc(-c2nn3ncccc3c2-c2ccnc(Nc3cccc(C(F)(F)F)c3)n2)c1)c1c(F)cccc1F" ?
Result string: Condition met

Query string: Exam item: decide whether the reported %Inh for "Nc1nccc(-c2c(-c3ccc(F)cc3)ncn2C2CCN(CC(F)(F)F)CC2)n1" is at least 5%.
Result string: Condition not met

Query string: Can "Fc1ccc(-c2ncn(CCCN3CCOCC3)c2-c2ccccn2)cc1" be said to have %Inh at or above 5%?
Result string: Condition not met

Query string: Identify whether the reported %Inh of the following compound is 5% or greater: "Cc1cccc(Cn2ccn3c(=O)cc(N4CCOCC4)nc23)c1"
Result string: Condition met
